Entries and their measured growth follow.
Tested on: SF-539 CNS
Experiment: NCI-60 one-dose screen, 48 h (100 = growth as untreated, 0 = no growth, -100 = all killed)
Conditions: 10 µM unless noted
The panel holds about 83,000 compounds, 20% with a hit somewhere; the sample as a whole holds those more often. Activity calls are given as the source filed them. Rule for the calls: active = growth percent below 10; inactive = the rest.
Readout label: growth

| Molecule | Readout label | Recorded value |
| --- | --- | --- |
| Nc1c(C(=O)O)cc(Cl)cc1[N+](=O)[O-] | growth | 99.7% (inactive) |
| Clc1nccc2c(-c3csc(-c4c[nH]c5ccccc45)n3)c[nH]c12 | growth | 41.9% (inactive) |
| CC(=O)N/C(=C1/OC(C(O)C(O)C(O)CO)CN1C)[P+](c1ccccc1)(c1ccccc1)c1ccccc1 (centres undefined) | growth | 97.6% (inactive) |
| Cc1ccc(-c2nc(C(Cl)Cl)nc3cc(C)nn23)cc1 | growth | 35.1% (inactive) |
| CC(C)[C@@]12C[C@@H](OC(=O)COC(=O)c3ccccc3)[C@@](C)(O1)[C@@H]1CC[C@@H](C)[C@H]1[C@@H]2OC(=O)/C=C/c1ccccc1 | growth | 95.4% (inactive) |
| CCN(CC)c1ccc(/C=N/NC(=O)c2ccc(Nc3ccnc(C(F)(F)F)c3)cc2)c(O)c1 | growth | -46.4% (active) |
| CCCC(O)Cn1ncc(C(=O)OCC)c1NC(=O)NCc1cccc(F)c1 (centres undefined) | growth | 94.8% (inactive) |
| COc1ccc(NC(=O)c2cccc(C3CCc4c(cc(OC)c(OC)c4OC)O3)c2)cc1 (centres undefined) | growth | 18.9% (inactive) |
| CC(C)C[C@@H](C(=O)N[C@H](C(=O)OC1CCCC1)c1ccccc1)[C@H](O)C(=O)NO | growth | 52.2% (inactive) |
